Each entry below carries its recorded melting point.

Exercise: Quickly give me recorded melting point for CNC(=O)c1ccc(C)c(-c2nc(NC3CCN(C)CC3)nc3c2CNC(=O)N3c2c(F)cccc2F)c1
Solution: 205 to 209 °C (dec.)

Exercise: Please give measured melting point of the following entry: CNc1nc(-c2cc(NC(=O)c3ccsc3)ccc2C)c2c(n1)N(c1c(F)cccc1F)C(=O)NC2
Solution: 203 to 207 °C (dec.)

Exercise: // fetch melting point given entry Cc1ccc(C(=O)NCc2ccccc2)cc1-c1nc(NCCCN(C)C)nc2c1CNC(=O)N2c1c(F)cccc1F
Solution: 141 to 144 °C

Exercise: Name the recorded melting point of the molecule listed here: Cc1ccc(C(=O)NCc2ccccc2)cc1-c1nc(NCCN(C)C)nc2c1CNC(=O)N2c1c(F)cccc1F
Solution: 148 to 150 °C

Exercise: Indicate the recorded melting point value for this molecule: Cc1ccc(C(=O)Nc2ccc(C)c(-c3nc(N4CCC(N)CC4)nc4c3CNC(=O)N4c3c(F)cccc3F)c2)cc1F
Solution: 240 °C

Exercise: Please list melting point recorded for the molecule CNC(=O)c1ccc(C)c(-c2nc(NCCNC(C)C)nc3c2CNC(=O)N3c2c(F)cccc2F)c1
Solution: 136 to 139 °C (dec.)

Exercise: # return recorded melting point for entry CCN(CC)C(=O)c1ccc(C)c(-c2nc(NCCN(C)C)nc3c2CNC(=O)N3c2c(F)cccc2F)c1
Solution: 125 to 127 °C

Exercise: Supply reported melting point belonging to this molecule: Cc1ccc(C(=O)Nc2ccc(C)c(-c3nc(NC4CC(C)(C)NC(C)(C)C4)nc4c3CNC(=O)N4c3c(F)cccc3F)c2)cc1F [23(e)]
Solution: 220 °C (dec.)

Exercise: Give the reported value of melting point for this record: Cc1ccc(C(=O)NCc2ccccc2)cc1-c1nc(N2CCC(N(C)C(=O)OC(C)(C)C)CC2)nc2c1CNC(=O)N2c1c(F)cccc1F
Solution: 146 to 150 °C (dec.)

Exercise: Answer with the recorded melting point for the molecule listed here: Cc1ccc(C(=O)NCc2ccccc2)cc1-c1nc(N2CCC(N)CC2)nc2c1CNC(=O)N2c1c(F)cccc1F
Solution: 210 to 266 °C (dec.)

Exercise: Retrieve melting point measured for Cc1ccc(C(=O)N(C)C)cc1-c1nc(N2CCN(C)CC2)nc2c1CNC(=O)N2c1c(F)cccc1F and print it.
Solution: 159 to 162 °C

Exercise: State its melting point: Cc1ccc(C(=O)NCc2ccccc2)cc1-c1nc(NC2CCNCC2)nc2c1CNC(=O)N2c1c(F)cccc1F
Solution: 172 to 176 °C (dec.)

Exercise: Could you please provide reported melting point for CNC(=O)c1ccc(C)c(-c2nc(N3CCN(C)CC3)nc3c2CNC(=O)N3c2c(F)cccc2F)c1 ? Thanks!
Solution: 164 to 168 °C (dec.)

Exercise: Let me know recorded melting point for CNC(=O)c1ccc(C)c(-c2nc(NCCCNC(C)C)nc3c2CNC(=O)N3c2c(F)cccc2F)c1 , thanks.
Solution: 153 to 157 °C (dec.)

Exercise: Report melting point for Cc1ccc(C(=O)NCc2ccccc2)cc1-c1nc(NCCNC(C)C)nc2c1CNC(=O)N2c1c(F)cccc1F
Solution: 133 to 137 °C

* * *

# Tested Target: Recombinant human p38α (Homo sapiens, UniProt Q16539)
# Construct: GST; made in house
# Sequence (Q16539 whole entry): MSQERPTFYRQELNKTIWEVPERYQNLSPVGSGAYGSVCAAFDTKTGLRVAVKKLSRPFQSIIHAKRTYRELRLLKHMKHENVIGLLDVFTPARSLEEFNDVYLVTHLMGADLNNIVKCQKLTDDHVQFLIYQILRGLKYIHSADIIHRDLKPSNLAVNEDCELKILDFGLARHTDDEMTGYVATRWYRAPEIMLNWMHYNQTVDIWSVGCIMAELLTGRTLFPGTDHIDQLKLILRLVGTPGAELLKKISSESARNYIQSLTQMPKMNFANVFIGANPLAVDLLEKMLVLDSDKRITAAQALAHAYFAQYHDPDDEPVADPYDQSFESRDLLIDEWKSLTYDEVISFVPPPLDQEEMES
# Test Description: Fluorescence anisotropy kinase binding assay (standard or low volume)
# Details: bound; read-out: apparent pIC50 (converted)
Counter-ions that a name gives are not always drawn.
Measurement Name: IC50

| Compound | Recorded Value |
| --- | --- |
| Cc1cc(C(=O)NC(C)C)ccc1-c1nc(NCCN(C)C)nc2c1CNC(=O)N2c1c(F)cccc1F [104(c), trifluoroacetate] | > 15.8 µM |
| CN(C)CCNc1nc(-c2ccc(C(=O)N(C)C)cc2)c2c(n1)N(c1c(F)cccc1F)C(=O)NC2 [Example 101, trifluoroacetate] | > 15.8 µM |

From here, focus on the item given below.
Exercise: Assign IC50 to the following record: Cc1cc(C(N)=O)ccc1-c1nc(NCCN(C)C)nc2c1CNC(=O)N2c1c(F)cccc1F [Example 110, trifluoroacetate]
Solution: > 15.8 µM

* * *

# Tested Target: Recombinant human p38α (Homo sapiens, UniProt Q16539)
# Construct: GST; made in house
# Test Description: Fluorescence anisotropy kinase binding assay (standard or low volume)
# Details: bound; read-out: apparent pIC50 (converted)
Structures can show the parent of a compound that is named as a salt.
Listed below: IC50 values for each entry.

// worked examples, IC50 included
| Molecule | Measurement Name | Recorded Value |
| --- | --- | --- |
| CNC(=O)c1ccc(-c2nc(NCCN(C)C)nc3c2CNC(=O)N3c2c(F)cccc2F)cc1 [Example 102, trifluoroacetate] | IC50 | > 15.8 µM |
| CCCNC(=O)c1ccc(-c2nc(NCCN(C)C)nc3c2CNC(=O)N3c2c(F)cccc2F)c(C)c1 [Example 105, trifluoroacetate] | IC50 | > 15.8 µM |
| CN(C)CCNc1nc(-c2ccc(C(N)=O)cc2)c2c(n1)N(c1c(F)cccc1F)C(=O)NC2 [Example 103, trifluoroacetate] | IC50 | > 15.8 µM |

Exercise: Tell me its IC50 given Cc1cc(C(=O)N(C)C)ccc1-c1nc(NCCN(C)C)nc2c1CNC(=O)N2c1c(F)cccc1F [Example 108, trifluoroacetate] as the entry.
Solution: > 15.8 µM

Exercise: // Input: CN(C)CCNc1nc(-c2ccc(C(=O)Nc3ccc(F)cc3)cc2)c2c(n1)N(c1c(F)cccc1F)C(=O)NC2 [Example 100, trifluoroacetate] . Output its IC50 only.
Solution: > 15.8 µM

Exercise: Using known records, supply IC50 for CCN(CC)C(=O)c1ccc(C)c(-c2nc(NCCNC(C)C)nc3c2CNC(=O)N3c2c(F)cccc2F)c1
Solution: > 15.8 µM

* * *

# Tested Target: Recombinant human p38α (Homo sapiens, UniProt Q16539)
# Construct: GST; made in house
# Test Description: Fluorescence anisotropy kinase binding assay (standard or low volume)
# Details: 12 nM p38α, 5 nM fluorescent ligand
Measurement Name: active in the assay (pIC50, p38α binding)

Here's what some known entries look like.
| Compound | Recorded Value |
| --- | --- |
| Cc1ccc(C(=O)N(C)C)cc1-c1nc(N(C)CCCN(C)C)nc2c1CNC(=O)N2c1c(F)cccc1F | active |
| CSc1nc(-c2cc(N)ccc2C)c2c(n1)N(c1c(F)cccc1F)C(=O)NC2 | active |
| Cc1ccc(C(=O)Nc2ccc(C)c(-c3nc(S(C)(=O)=O)nc4c3CNC(=O)N4c3c(F)cccc3F)c2)cc1F | active |
| Cc1ccc(C(=O)Nc2nccs2)cc1-c1nc(NCCN(C)C)nc2c1CNC(=O)N2c1c(F)cccc1F | active |
| CNC(=O)c1ccc(C)c(-c2nc(S(C)(=O)=O)nc3c2CNC(=O)N3c2c(F)cccc2F)c1 | active |
| CCN(CC)C(=O)c1ccc(C)c(-c2nc(N(C)CCCN(C)C)nc3c2CNC(=O)N3c2c(F)cccc2F)c1 | active |
| CNC(=O)c1ccc(C)c(-c2nc(SC)nc3c2CNC(=O)N3c2c(F)cccc2F)c1 | active |
| Cc1ccc(C(=O)N(C)C)cc1-c1nc(NC2CCN(C)CC2)nc2c1CNC(=O)N2c1c(F)cccc1F | active |

Exercise: Fill in active in the assay (pIC50, p38α binding) for record Cc1ccc(NC(=O)c2ccsc2)cc1-c1nc(NC2CC(C)(C)NC(C)(C)C2)nc2c1CNC(=O)N2c1c(F)cccc1F
Solution: active

Exercise: Complete the entry with active in the assay (pIC50, p38α binding) for CSc1nc(-c2cc(NC(=O)c3ccc(C)c(F)c3)ccc2C)c2c(n1)N(c1c(F)cccc1F)C(=O)NC2
Solution: active

Exercise: Give active in the assay (pIC50, p38α binding) for the following compound: Cc1ccc(C(=O)NC2CCC2)cc1-c1nc(N2CCC(N)CC2)nc2c1CNC(=O)N2c1c(F)cccc1F
Solution: active

* * *

# System: TNFalpha
# Test Description: LPS-stimulated cytokine production in human whole blood
# Assay type: cell-based
# Details: LPS-stimulated TNF-alpha, bound, read-out: IC50
Where a name gives a salt, the structure may show the parent alone.
Measurement Name: IC50

Example cases with answers are listed next.
| Molecule | Tested Target | Measurement Name | Recorded Value |
| --- | --- | --- | --- |
| Cc1ccc(C(=O)NC[C@H](C)O)cc1-c1nc(NCCN(C)C)nc2c1CNC(=O)N2c1c(F)cccc1F [Example 129] | TNFalpha | IC50 | > 1000 nM |
| CCN(CC)C(=O)c1ccc(C)c(-c2nc(N3CCN(C)CC3)nc3c2CNC(=O)N3c2c(F)cccc2F)c1 [Example 162] | TNFalpha | IC50 | > 1000 nM |
| Cc1ccc(C(=O)NC(C)C)cc1-c1nc(N2CCC(n3c(=O)[nH]c4cc(Cl)ccc43)CC2)nc2c1CNC(=O)N2c1c(F)cccc1F [Example 73, trifluoroacetate] | TNFalpha | IC50 | > 1000 nM |

Exercise: Look up and report measured IC50 for this entry: Cc1ccc(C(=O)NC(C)C)cc1-c1nc(N2CCCC2)nc2c1CNC(=O)N2c1c(F)cccc1F [Example 67]
Solution: > 1000 nM

Exercise: Identify measured IC50 corresponding to CCc1ccc(C(=O)O)cc1-c1nc(NCCN(C)C)nc2c1CNC(=O)N2c1c(F)cccc1F [Example 141]
Solution: > 1000 nM

Exercise: Read the entry CCc1ccc(C(=O)Nc2ccc(F)c(F)c2)cc1-c1nc(NCCN(C)C)nc2c1CNC(=O)N2c1c(F)cccc1F [Example 143, trifluoroacetate] and write its reported IC50.
Solution: > 1000 nM

Exercise: Entry CNC(=O)c1ccc(C)c(-c2nc(S(C)(=O)=O)nc3c2CNC(=O)N3c2c(F)cccc2F)c1 [163(b)] needs its IC50 filled in; supply it.
Solution: > 1000 nM

Exercise: // fetch IC50 given entry Cc1ccc(C(=O)NC(C)C)cc1-c1nc(N2CCCCCC2)nc2c1CNC(=O)N2c1c(F)cccc1F [Example 66]
Solution: > 1000 nM

Exercise: Could you please provide reported IC50 for Cc1ccc(C(=O)NC[C@@H](C)O)cc1-c1nc(NCCN(C)C)nc2c1CNC(=O)N2c1c(F)cccc1F [Example 128] ? Thanks!
Solution: > 1000 nM

src = patent US20090239846A1
